- Test Description: qHTS assay to identify small molecule agonists of H2AX - cell viability counter screen (AID 1224847); further: nearly all actives have a fitted effect of over 30% in size
- Experimental Context: CHO-K1 viability, CellTiter-Glo luminescence, 3 h; series mostly up to 154 µM
- Excerpt: National Center for Advancing Translational Sciences [NCATS] NIH Chemical Genomics Center [NCGC] U.S. Environmental Protection Agency [EPA] National Institutes of Environmental Health Sciences [NIEHS] National Toxicology Program [NTP] U.S. Food and Drug Administration [FDA] HTRF phospho-H2AX (Ser139) assay (Cisbio Bioassays, US) enables the quantitative detection of the histone variant H2AX when phosphorylated on serine 139. […]
Results filed as inconclusive are left out. Activity calls are given as the source filed them. The call rests on the fitted dose curve. Starred links: 1 amine or outer side, 2 acyl side, 3 side chain; linkers in the order of their positions; H or OH if unused. Positions of bridges follow the written chain, without caps; N, C: chain ends. Non-standard residues stand in square brackets, D forms with d. Residues, ends and D or L forms follow the SMILES beside them. Chains are numbered I, II in the order given. Actinocin(9to1) = Cc1c2oc3c(C)ccc(C(=O)[*:1])c3nc-2c(C(=O)[*:2])c(N)c1=O; NMeV = CN[C@H](C(=O)O)C(C)C; Sar = CNCC(=O)O
Classes used: active, inactive

{"Molecule": "Cc1cccc([N+](=O)[O-])c1C(=O)O", "Qualitative Label": "inactive"}
{"Molecule": "CC(C)CCOCc1ccccc1", "Qualitative Label": "inactive"}
{"Molecule": "CO[Si](OC)(OC)c1ccccc1", "Qualitative Label": "inactive"}
{"Molecule": "Cc1c(O)cccc1C(=O)N[C@@H](CSc1ccccc1)[C@H](O)CN1C[C@H]2CCCC[C@H]2C[C@H]1C(=O)NC(C)(C)C", "Qualitative Label": "active"}
{"Molecule": "CC1COc2c(N3CCN(C)CC3)c(F)cc3c(=O)c(C(=O)O)cn1c23 (stereo not given)", "Qualitative Label": "inactive"}
{"Molecule": "CCN(CC)CCOc1ccc(/C(=C(\\Cl)c2ccccc2)c2ccccc2)cc1", "Qualitative Label": "active"}
{"Molecule": "O=C(O[C@@H]1Cc2c(O)cc(O)cc2O[C@@H]1c1cc(O)c(O)c(O)c1)c1cc(O)c(O)c(O)c1", "Qualitative Label": "inactive"}
{"Molecule": "Cc1ccnc2c1NC(=O)c1cccnc1N2C1CC1", "Qualitative Label": "inactive"}
{"Molecule": "O=C(O)c1cn(-c2ccc(F)cc2)c2cc(N3CCNCC3)c(F)cc2c1=O", "Qualitative Label": "inactive"}
{"Molecule": "CC(C)(O)CCC(C)(C)O", "Qualitative Label": "inactive"}
{"Molecule": "CCN(CC)C(=O)Nc1ccc(OCC(O)CNC(C)(C)C)c(C(C)=O)c1 (stereo not given)", "Qualitative Label": "inactive"}
{"Molecule": "CCC[C@H](N[C@@H](C)C(=O)N1[C@H](C(=O)O)C[C@@H]2CCCC[C@@H]21)C(=O)OCC", "Qualitative Label": "inactive"}
{"Molecule": "Nc1nc(=S)c2[nH]cnc2[nH]1", "Qualitative Label": "inactive"}
{"Molecule": "COC(=O)/C=C/c1ccccc1", "Qualitative Label": "inactive"}
{"Molecule": "CC(=O)O[C@]1(C(C)=O)CC[C@H]2[C@@H]3C[C@H](C)C4=CC(=O)CC[C@]4(C)[C@H]3CC[C@@]21C", "Qualitative Label": "inactive"}
{"Molecule": "CCC(C)(C)C(=O)O[C@H]1C[C@@H](C)C=C2C=C[C@H](C)[C@H](CC[C@@H]3C[C@@H](O)CC(=O)O3)[C@H]21", "Qualitative Label": "inactive"}
{"Molecule": "NCCO", "Qualitative Label": "inactive"}
{"Molecule": "CC(C)(C)NCC(O)c1cc(O)cc(O)c1 (stereo not given)", "Qualitative Label": "inactive"}
{"Molecule": "CC(N)=O", "Qualitative Label": "inactive"}
{"Molecule": "O=C(O)CP(=O)(O)O", "Qualitative Label": "inactive"}
{"Molecule": "CN1C(=O)c2ccc([N+](=O)[O-])cc2C1=O", "Qualitative Label": "inactive"}
{"Molecule": "C=C(C)C(=O)O", "Qualitative Label": "inactive"}
{"Molecule": "CCn1c2ccccc2c2cc(N)ccc21", "Qualitative Label": "inactive"}
{"Molecule": "O=C1NCC2(CCN(CCc3ccccc3)CC2)O1", "Qualitative Label": "inactive"}
{"Molecule": "CC(C)(C)c1ccccc1", "Qualitative Label": "inactive"}
{"Molecule": "Nc1nc2ccccc2[nH]1", "Qualitative Label": "inactive"}
{"Molecule": "CC(C(O)c1ccc(O)cc1)N1CCC(Cc2ccccc2)CC1 (stereo not given)", "Qualitative Label": "inactive"}
{"Molecule": "c1cc(C(c2ccc(OCC3CO3)cc2)C(c2ccc(OCC3CO3)cc2)c2ccc(OCC3CO3)cc2)ccc1OCC1CO1 (stereo not given)", "Qualitative Label": "inactive"}
{"Molecule": "NC(=Nc1ccccc1)Nc1ccccc1", "Qualitative Label": "inactive"}
{"Molecule": "CCOc1ccccc1C(N)=O", "Qualitative Label": "inactive"}
{"Molecule": "CCCCC/C=C/CC1CC(=O)OC1=O (stereo not given)", "Qualitative Label": "inactive"}
{"Molecule": "O=C1OC2(c3ccc(O)cc3Oc3cc(O)ccc32)c2ccccc21", "Qualitative Label": "inactive"}
{"Molecule": "c1ccc2c(c1)CCCC2C1=NCCN1 (stereo not given)", "Qualitative Label": "inactive"}
{"Molecule": "CCc1ccc(C(c2ccc(CC)cc2)C(Cl)Cl)cc1", "Qualitative Label": "active"}
{"Molecule": "Nc1ccc(O)cc1", "Qualitative Label": "inactive"}
{"Molecule": "CC(=O)OCCOCCOCCOC(C)=O", "Qualitative Label": "inactive"}
{"Molecule": "CCC(C)(Oc1ccc(C2(c3ccc(OC(C)(CC)C(=O)O)cc3)CCCCC2)cc1)C(=O)O (stereo not given)", "Qualitative Label": "inactive"}
{"Molecule": "Clc1ccc2c(c1)C(N1CCNCC1)=Nc1ccccc1O2", "Qualitative Label": "inactive"}
{"Molecule": "CC(C)(C)c1ccc(O)c(C(C)(C)C)c1", "Qualitative Label": "active"}
{"Molecule": "O=C(O)CCc1ccccc1", "Qualitative Label": "inactive"}
{"Molecule": "Cc1cccc(O)c1C", "Qualitative Label": "inactive"}
{"Molecule": "Cc1c2oc3c(C)ccc(C(=O)N[C@@H]4C(=O)N[C@H](C(C)C)C(=O)N5CCC[C@H]5C(=O)N(C)CC(=O)N(C)[C@@H](C(C)C)C(=O)O[C@@H]4C)c3nc-2c(C(=O)N[C@@H]2C(=O)N[C@H](C(C)C)C(=O)N3CCC[C@H]3C(=O)N(C)CC(=O)N(C)[C@@H](C(C)C)C(=O)O[C@@H]2C)c(N)c1=O (I: T[dV]P[Sar][NMeV] / II: T[dV]P[Sar][NMeV]; ester I:1-I:C, II:1-II:C; linker I:N-II:N via Actinocin(9to1))", "Qualitative Label": "inactive"}
{"Molecule": "CC[C@]1(O)C[C@@H]2CN(CCc3c([nH]c4ccccc34)[C@@](C(=O)OC)(c3cc4c(cc3OC)N(C)[C@H]3[C@@](O)(C(=O)OC)[C@H](OC(C)=O)[C@]5(CC)C=CCN6CC[C@]43[C@@H]65)C2)C1", "Qualitative Label": "inactive"}
{"Molecule": "CCCOC(=O)c1cc(O)c(O)c(O)c1", "Qualitative Label": "inactive"}
{"Molecule": "CNC1(C)C2CCC(C2)C1(C)C (stereo not given)", "Qualitative Label": "inactive"}

###

- Test Description: qHTS assay to identify small molecule antagonists of the sonic hedgehog signaling (Shh) pathway - cell viability counter screen (AID 1259367); further: nearly all actives have a fitted effect of over 55% in size
- Experimental Context: NIH/3T3 Gli1-Luc viability, CellTiter-Fluor, 24 h; series mostly up to 92.4 µM
- From the text: National Center for Advancing Translational Sciences [NCATS] NIH Chemical Genomics Center [NCGC] U.S. Environmental Protection Agency [EPA] National Institutes of Environmental Health Sciences [NIEHS] National Toxicology Program [NTP] U.S. Food and Drug Administration [FDA] The sonic hedgehog (Shh) pathway is essential for normal embryonic development. Dysregulation of the Shh pathway can cause severe developmental defects in organs. […]
Records with an inconclusive call do not appear. The source made the active and inactive calls. The call rests on the fitted dose curve; in most records, active means well fitted cell-killing curve with a large enough effect in the repeat runs; inconclusive means weak or mixed curves, or effect the other way; inactive means no such curve, though single readings can be large or run the other way.
Classes used: class 1 = active, class 0 = inactive

{"Molecule": "CC(=O)Nc1ccc(C(=O)CCl)cc1", "Qualitative Label": "class 0"}
{"Molecule": "CC(=O)OCCOCCOCCOC(C)=O", "Qualitative Label": "class 0"}
{"Molecule": "CCC(CO)(CO)COCC(CC)(CO)CO", "Qualitative Label": "class 0"}
{"Molecule": "CC1COC(=O)O1 (stereo not drawn)", "Qualitative Label": "class 0"}
{"Molecule": "C=CC(=O)OCCCCCCOC(=O)C=C", "Qualitative Label": "class 1"}
{"Molecule": "c1ccc2c(c1)-c1cccc3c1c-2cc1ccccc13", "Qualitative Label": "class 0"}
{"Molecule": "O=C(O)CCc1ccccc1", "Qualitative Label": "class 0"}
{"Molecule": "NC(N)=NC(=O)Cc1c(Cl)cccc1Cl", "Qualitative Label": "class 0"}
{"Molecule": "O=Cc1ccc(Cl)cc1", "Qualitative Label": "class 0"}
{"Molecule": "BrC1CCC(Br)C(Br)CCC(Br)C(Br)CCC1Br (stereo not drawn)", "Qualitative Label": "class 0"}
{"Molecule": "C/C=C/c1ccc(OCC)c(O)c1", "Qualitative Label": "class 0"}
{"Molecule": "Cc1cc(C(C)(C)C)c(O)c(C(C)(C)C)c1", "Qualitative Label": "class 0"}
{"Molecule": "COC(=O)[C@H]1[C@H]2C[C@@H]3c4[nH]c5cc(OC)ccc5c4CCN3C[C@H]2C[C@@H](OC(=O)c2cc(OC)c(OC)c(OC)c2)[C@@H]1OC", "Qualitative Label": "class 0"}
{"Molecule": "C#CC(C)(CC)OC(=O)c1ccccc1C(=O)O (stereo not drawn)", "Qualitative Label": "class 0"}
{"Molecule": "O=C1Nc2ccccc2C1(c1ccc(O)cc1)c1ccc(O)cc1", "Qualitative Label": "class 1"}
{"Molecule": "CC(C)C(=O)c1c(C(C)C)nn2ccccc12", "Qualitative Label": "class 0"}
{"Molecule": "CC1COc2c(N3CCN(C)CC3)c(F)cc3c(=O)c(C(=O)O)cn1c23 (stereo not drawn)", "Qualitative Label": "class 0"}
{"Molecule": "CCC(=O)/C=C/C1C(C)=CCCC1(C)C (stereo not drawn)", "Qualitative Label": "class 0"}
{"Molecule": "CCCCN(CCO)CCCC", "Qualitative Label": "class 0"}
{"Molecule": "CCC(C)(C)C(=O)O[C@H]1C[C@@H](C)C=C2C=C[C@H](C)[C@H](CC[C@@H]3C[C@@H](O)CC(=O)O3)[C@H]21", "Qualitative Label": "class 0"}
{"Molecule": "CC[C@@H](N)CO", "Qualitative Label": "class 0"}
{"Molecule": "CCn1c2ccccc2c2cc(N)ccc21", "Qualitative Label": "class 0"}
{"Molecule": "CC(=O)OCC1=C(C(=O)O)N2C(=O)[C@@H](NC(=O)Cc3cccs3)[C@H]2SC1", "Qualitative Label": "class 0"}
{"Molecule": "CCCN[C@H]1CCc2nc(N)sc2C1", "Qualitative Label": "class 0"}
{"Molecule": "NNCCc1ccccc1", "Qualitative Label": "class 0"}
{"Molecule": "CCOc1ccccc1C(N)=O", "Qualitative Label": "class 0"}
{"Molecule": "CC(C)(C)c1ccccc1", "Qualitative Label": "class 0"}
{"Molecule": "CC(N)=O", "Qualitative Label": "class 0"}

Origin of the recorded values: PubChem BioAssay (Tox21)
